- TEST_PROTOCOL: IV and PO single dose pharmacokinetic studies in SD rats
- Assay type: in vivo, male Sprague-Dawley (SD) rats
- DETAILS: Sprague-Dawley, rat, plasma, male SD rats, PO 2 mg/kg vs IV infusion 1 mg/kg, read-out: Rat % F
- Experimental: IV and PO Single Dose Pharmacokinetic Studies in SD Rats: The pharmacokinetics of selected compounds was characterized in male Sprague-Dawley (SD) rats (250-300g). […] Pharmacokinetic parameters were generated using non-compartmental pharmacokinetic analysis (Phoenix WinNonlin, version 6.3). Values below the lower limit of quantification (LLOQ) were assigned a value of zero if predose and treated as missing thereafter. Area under the curve (AUC) was calculated using the linear trapezoidal rule. […]
Label 1.0 for high-side bioavailability (at or above 20%) and 0.0 for low-side bioavailability (below it).

[[record]]
molecule = "COC(=O)N[C@H](C(=O)N1[C@@H](C)CC[C@H]1c1ncc(-c2ccc3c(c2)COc2cc4c(ccc5nc([C@@H]6C[C@H](COC(F)F)CN6C(=O)[C@@H](NC(=O)OC)[C@@H](C)OC)[nH]c54)cc2-3)[nH]1)C(C)C [FO]"
assigned_label = 0.0

[[record]]
molecule = "COC(=O)N[C@H](C(=O)N1C[C@@H](C)C[C@H]1c1nc2ccc3cc4c(cc3c2[nH]1)OCc1cc(-c2cnc([C@@H]3CC[C@H](C)N3C(=O)[C@@H](NC(=O)OC)[C@@H](C)OC)[nH]2)ccc1-4)C(C)C [GA]"
assigned_label = 0.0

[[record]]
molecule = "CC[C@H]1CC[C@@H](c2ncc(-c3ccc4c(c3)COc3cc5c(ccc6nc([C@@H]7CC[C@H](CC)N7C(=O)[C@@H](NC(=O)OC)C7CCOCC7)[nH]c65)cc3-4)[nH]2)N1C(=O)[C@@H](NC(=O)OC)C1CCOCC1 [IE]"
assigned_label = 0.0

[[record]]
molecule = "CC[C@H]1CC[C@@H](c2nc3ccc4cc5c(cc4c3[nH]2)OCc2cc(-c3cnc([C@@H]4CC[C@H](C)N4C(=O)[C@@H](NC(=O)OC)[C@@H](C)CC)[nH]3)ccc2-5)N1C(=O)[C@@H](NC(=O)OC)C1CCOCC1 [IK]"
assigned_label = 1.0

[[record]]
molecule = "CC[C@H]1CC[C@@H](c2ncc(-c3ccc4c(c3)COc3cc5c(ccc6nc([C@@H]7CC[C@H](C)N7C(=O)[C@@H](NC(=O)OC)C7CCOCC7)[nH]c65)cc3-4)[nH]2)N1C(=O)[C@@H](NC(=O)OC)C(C)C [EN]"
assigned_label = 1.0

[[record]]
molecule = "COC(=O)N[C@H](C(=O)N1[C@@H](C)CC[C@H]1c1ncc(-c2ccc3c(c2)COc2cc4c(ccc5nc([C@@H]6C[C@@H]7CCC[C@@H]7N6C(=O)[C@@H](NC(=O)OC)C6CCOCC6)[nH]c54)cc2-3)[nH]1)C(C)C [IA]"
assigned_label = 1.0


-- ask Reported bioavailability at or above 20%? COC(=O)N[C@H](C(=O)N1[C@@H](C)CC[C@H]1c1ncc(-c2ccc3c(c2)COc2cc4c(ccc5nc([C@@H]6C[C@H](C)CN6C(=O)[C@@H](NC(=O)OC)C6CCOCC6)[nH]c54)cc2-3)[nH]1)C(C)C [EI]
-- reply 0.0

-- ask I'd appreciate it if you could say whether COC(=O)N[C@H](C(=O)N1C[C@@H](C)C[C@H]1c1nc2ccc3cc4c(cc3c2[nH]1)OCc1cc(-c2cnc([C@@H]3CC[C@H](C)N3C(=O)[C@@H](NC(=O)OC)[C@@H](C)OC)[nH]2)ccc1-4)[C@@H](C)OC [DY] has bioavailability at least equal to 20%.
-- reply 0.0

Reference source for all entries: patent US10800789B2
